Reference source for all entries: PubChem BioAssay (NCI)

Assay: NCI Yeast Anticancer Drug Screen. Data for the cln2 rad14 strain (AID 165);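 also: 0% = growth equal to vehicle treated cultures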
Details: S. cerevisiae cln2 rad14 strain, at 5.0 µM (retest, dose inferred, filed as 0.5), hits give high values
Compounds without any hit were thinned out: in the full panel of roughly 79,000, 15% have a hit. Where a SMILES comes first, the peptide text is derived from it. Bridges are numbered along the chain shown (N, C = ends). [ ]: non-standard residue; d: D form. NMeV = CN[CH](C(=O)O)C(C)C; Sar = CNCC(=O)O
Measure name: growth inhibition (%)
// note: answer is a bare numeric in %

If you can, please state the reported growth inhibition value of "CC(C)(C)C1=CC(N2CCCCC2)(C(C)(C)C)C=C(C(C)(C)C)C1=O" .
-3

// next record "O=C(O)C1C(c2ccccc2)=C1c1ccccc1"
-44

Also check CC(C)C1NC(=O)C(N)C(C)OC(=O)C(C(C)C)N(C)C(=O)CN(C)C(=O)C2CCCN2C1=O (centres undefined) (tested in a mixture with another compound) (H-TVP[Sar][NMeV]; ester 1-C; configuration not given here)
39

Next entry: "CCOC(=O)/C(C#N)=C\c1ccc(N(CCC(=O)O)CCC(=O)O)c(I)c1"
-7

Also check "CSC(=S)N/N=C(\C)c1ccc[nH]1"
-13

Request: "C/C(CCn1[nH]c(=O)ccc1=O)=N\Nc1ccc([N+](=O)[O-])cc1[N+](=O)[O-]"
23

Moving on to "O=C(O)CCCCCCCCC(=O)CCl"
14

Entry to check: "O=NNc1ccc(-c2ccc([N+](=O)[O-])cc2)cn1"
26

Please do the same for "C=CC(=O)c1ccc2c(c1)OCCOCCOCCOCCOCCO2" as well.
20

"CCOC1=Cc2c(oc3c(C(C)(C)C)cc(OCC)cc23)OC(C(C)(C)C)=C1" , same question.
13

Next: "CSC(=S)N/N=C\C(C)=N/N=C(N)N"
-14

Okay, and CCCCCCCCCCC[N+]1(Cc2ccccc2)CC2CCN(Cc3ccccc3)CC2C1 (centres undefined) ?
95

Let us now turn to "S=c1[nH]c2cc(-c3ccccc3)ccc2o1"
52

Try this molecule next: "CCC(=O)[O][Bi]([c]1ccccc1)[c]1ccccc1"
49

And what about the molecule "CC(=O)OCc1ccc([N+](=O)[O-])o1" ?
0

Then what about the molecule "C=CCc1cc([N+](=O)[O-])ccc1O" ?
-3

// query: "Cc1cc2nc3[nH]c4c(Cl)cc(Cl)cc4c3nc2cc1C"
-10

Field entry: O=C(O)CCC12CCCCC1=NC1(CCCCC1)NC2=O (centres undefined)
4

And "Cc1ccc2[nH]c3c(c2c1)[n+]([O-])c1ccccc1[n+]3[O-]" ?
-4

Lookup Cc1ccc2c(C3Cc4ccccc4N3C(=O)/C=C\C(=O)O)c(C)[nH]c2c1 (centres undefined)
27

Another molecule to look at: CCOC(=O)CN1CCC(C(=O)CC2(O)C3(Cl)C4(Cl)C5(Cl)C(Cl)(Cl)C6(Cl)C4(Cl)C2(Cl)C6(Cl)C53Cl)CC1 (centres undefined)
58

Note, next up: CNc1ccc(C(=O)NC(CCCCNC(=O)OCc2ccccc2)C(=O)OC)cc1 (centres undefined)
-5

Likewise for "Cc1ccc(Nc2nc3c(s2)C(=O)c2ccccc2C3=O)cc1" ?
3

Input "COc1ccc(CN2CCCN(Cc3ccc(OC)cc3OC)C2c2cc(Cl)cc(Cl)c2O)c(OC)c1"
-2

Next entry: "CC(=O)N1c2ccccc2Sc2ccc3ccc(C(=O)CCl)cc3c21"
70

Repeat with "COc1ccc(C=C(C(=O)c2ccccc2)C(=O)c2ccccc2)cc1"
14

One more molecule: "Cc1ccc(C)c(N2C(=O)C(=O)c3c(C)ccc(C)c32)c1"
27

Same lookup for "O=C1C=C(Cl)C(=O)C(Cl)=C1Cl" , please.
-25

Now consider O=S(Nc1ccccc1Br)c1ccccc1 (centres undefined) .
1

# iterate: "CCCCCCCCCCCCCC[N+]1(CC)CCCCC1"
84

Then this molecule: "O=C(/C=C/c1ccccc1Cl)c1ccc(F)cc1"
9

Please do the same for "C[n+]1c(/C=C/c2ccc(N3CCCC3)cc2)sc2ccccc21" as well.
60

Here is the next molecule: "COc1ccc(Oc2ccc(C(=O)C(CN(C)C)CN(C)C)cc2)cc1"
-2

Try this molecule next: "CCCCCCCCCc1c(O)c(O)c(CCCCCCCCC)c(CCCCCCCCC)c1CCCCCCCCC"
33

Similarly, "CCc1ccccc1SC(C)=O" ?
11

Further, for "NC(=O)NOC(=O)c1ccccc1" ?
-7

Now consider O=C(OCc1ccccc1)N1N=NC2C1C1CC(OCc3ccccc3)(OCc3ccccc3)C2O1 (centres undefined) .
4

Try this molecule next: CCCCC(CC)C(O)C(=O)O (centres undefined)
6

Try this molecule too: "Cc1nc(Nc2ccc(Cl)cc2)sc1C(=O)Nc1cccc2c(=O)[nH][nH]c(=O)c12"
3

Also "Cc1ccc2nc(N/N=C/c3cccc(C)n3)cc(C)c2c1" , if possible.
-8

Next entry: CC(C)Cc1ccc(C(C)/C=C2\CCC(CN3CCCCC3)C2=O)cc1 (centres undefined)
80

Record: "CC(=O)N(C)NC(=O)c1ccccc1"
-8

Can you check "CCCCOC(=O)c1ccc(S(=O)(=O)c2ccc(C(=O)OCCCC)cc2)cc1" next?
5

Check "Cc1cc2c(C(C)C)c(O)c(O)c3coc(/c1=c1/c(C)cc4c(C(C)C)c(=O)c(=O)c5coc1c45)c32" too.
-25

----------
Test: NCI Yeast Anticancer Drug Screen. Data for the mec2-1 strain (AID 157)
Conditions: S. cerevisiae mec2-1 strain, at 50.0 µM (retest, dose inferred, filed as 5.0), hits give high values
About 79,000 compounds went through this panel and 15% of them were active in at least one assay; those are over-represented in the sample as a whole.
Measure name: growth inhibition (%)
Numbers only; they are read as %.

I have this molecule here, "Nc1nc(Cl)cc(Nc2ccc(Cl)c(Cl)c2)n1" , and I need its recorded growth inhibition.
73

Try this molecule next: CC1CCC(C(O)(C(=O)O)C2CCC(C)CC2)CC1 (centres undefined)
39

What about "Nc1c(Cl)[nH]c(C(F)(F)F)nc1=S" ?
-1

Consider next the molecule COC1OC(CBr)C(OC(C)=O)C(OC(C)=O)C1OC(C)=O (centres undefined) in the same way.
3

Same lookup for "CC(C)(C)c1cc(Cl)c(O)c(Cc2cc(C(C)(C)C)cc(Cl)c2O)c1" , please.
78

For "CCCN1CCN(c2ccc([N+](=O)[O-])c3no[n+]([O-])c23)CC1" then?
99

Then what about the molecule "CCCCCCCC/C=C\CCCCCCCC(=O)NCC[N+](C)(C)C" ?
100

Thanks! And "C=C(Br)CN(CC(=C)Br)C(C)=O" ?
14

# iterate: "COc1ccc(/C=C/C(C(=O)O)C(=O)O)cc1"
84

Quick one: CCCOC(=O)C(S)C(S)C(=O)OCCC (centres undefined)
32

Next molecule up: "COc1cccc(-c2cc(=O)c3c(C)ccnc3[nH]2)c1"
4

Try this molecule next: "COC(=O)c1ccc(Cl)c(Cl)c1"
2

What about "CCN(c1ccc(C=O)cc1)c1ccc([N+](=O)[O-])cc1[N+](=O)[O-]" ?
30

Another: "ClCc1ccc(OCc2ccccc2)c(OCc2ccccc2)c1"
67

Next record, please: "c1cnc2ccc3c4cccnc4ccc3c2c1"
75

What would you report for "Cc1cc2c(C(C)C)c(O)c(O)c3coc(/c1=c1/c(C)cc4c(C(C)C)c(=O)c(=O)c5coc1c45)c32" ?
99

// repeat for "C=Cc1cc(N=Nc2ccc([N+](=O)[O-])cc2)ccc1N(C)C" and report
-2

Another molecule to look at: "O=C(N/C(=C\c1cccc([N+](=O)[O-])c1)c1nc2ccccc2s1)c1ccccc1"
98

Query "C(=C\[n+]1ccc2ccccc2c1)/c1ccccc1" next
12

Again, but for Cc1ccc2c(C3Cc4ccccc4N3C(=O)/C=C\C(=O)O)c(C)[nH]c2c1 (centres undefined)
91

# iterate: "CCOc1ccc(C(=O)CCN2CCOCC2)cc1"
27

Try this molecule next: "Fc1ccc2nncc(SCc3ccccc3)c2c1"
99

Moving on to "O=C1CN(CCN2CCOCC2)CC(=O)N2Cc3ccccc3CN12"
55

Consider next the molecule "COc1c(O)cc2c(c1O)C(=O)C1=C(CCCC1)C2=O" in the same way.
49

----------
Test: NCI Yeast Anticancer Drug Screen. Data for the bub3 strain (AID 167)
Settings: S. cerevisiae bub3 mutant strain, at 5.0 µM (retest, dose inferred, filed as 0.5)
About 79,000 compounds went through this panel and 15% of them were active in at least one assay; those are over-represented in the sample as a whole. Activity calls are given as the source filed them. No stated cut-off is given here; in the data, active means growth inhibition above about 70%; inactive means the rest.
The reply should be one of these categories: active, inactive

Write down the call the test reported for this compound. Item: "CC1(C)CC[C@]2(C(=O)O)CC[C@]3(C)C(=CC[C@@H]4[C@@]5(C)C[C@H](O)[C@H](O)[C@@](C)(C(=O)O)[C@@H]5CC[C@]43C)[C@@H]2C1"
active

Please do the same for CN(C)/N=C1\CC(c2ccccc2)C(C#N)(C#N)C1(C#N)C#N (stereo not given) as well.
inactive

Item: Oc1cc(Cl)cc2c1-c1ccc(Cl)cc1C2O (stereo not given)
inactive

Ok, now CCCCC(CC)C(O)C(=O)O (stereo not given)
inactive

Item: "Cc1ccc(S(=O)(=O)Oc2ccc(C(C)(C)C)cc2Cl)cc1"
inactive

Would you kindly repeat that for CC(CN(C)C)C(/C=C/c1ccc(F)cc1)=N\Nc1ccccc1 (stereo not given) ?
inactive

What do you have for "O=C(O)/C=C\C(=O)Nc1ccc2c(c1)C(=O)c1cc(F)ccc1-2" ?
inactive

Another compound to check: Cc1cccc(N2C(=O)c3ccccc3C2(c2ccccc2)N2CCCCC2)c1 (stereo not given)
inactive

Same thing, different compound: CCSC(=O)/C=C1\CN(C(=O)OC(C)(C)C)C1C(=O)OC(C)(C)C (stereo not given)
inactive

Also check "O=C(N/C(=C\c1cccc([N+](=O)[O-])c1)c1nc2ccccc2s1)c1ccccc1"
inactive
